// provenance: ChEMBL document CHEMBL3817728

test: Metabolic stability in Sprague-Dawley rat liver microsomes assessed as compound remaining at 30 mins in presence of NADPH regenerating system by HPLC method; type: ADME; details: read-out: Stability
Entries and their measured remaining at 0.5 h follow.
Return type: number; implicit unit %.

Suppose we examine the compound COc1ccc2c(/C=C(\C)C(=O)c3cc(OC)c(OC)c(OC)c3)c[nH]c2c1 ; what remaining at 0.5 h value has been reported?
85.6

# remaining at 0.5 h lookup, item COc1ccc(/C=C\c2cc(OC)c(OC)c(OC)c2)cc1O
68.1

====

test: Selectivity ratio of IC50 for HLF to IC50 for human A549 cells; assay type: ADME, cell-based; conditions: HLF versus A549 cells, read-out: Ratio IC50
resultType: selectivity ratio
Number, no unit, nothing else.

Data request, read-out selectivity ratio, for COc1ccc2c(/C=C(\C)C(=O)c3cc(OC)c(OC)c(OC)c3)c[nH]c2c1
1890

====

tested on: A2780; test: Cytotoxicity against human A2780 cells assessed as cell viability after 48 hrs by MTT assay; type: functional, cell-based; settings: A2780, 48 h
resultType: pIC50
Note on units: pIC50 is unitless, being -log10 of a concentration expressed in mol/L.

Solved cases below.
molecule: COc1ccc2c(/C=C(\C)C(=O)c3cc(OC)c(OC)c(OC)c3)cn(P(=O)([O-])[O-])c2c1.[Na+].[Na+]
observedMeasurement: 7.37
--
molecule: COc1ccc2[nH]cc(/C=C/C(=O)c3ccc(OC)c4c3OC(C)(C)C=C4)c2c1
observedMeasurement: 6.40
--
molecule: COc1cc(C(=O)/C=C/c2cccc3c2ccn3C)cc(OC)c1OC
observedMeasurement: 7.64
--
molecule: COc1cc(C(=O)/C=C/c2ccc3c(ccn3C)c2)cc(OC)c1OC
observedMeasurement: 7.35

Field: next molecule
Form field: reported pIC50 of COc1cccc2c1C(=O)c1c(O)c3c(c(O)c1C2=O)C[C@@](O)(C(=O)CO)C[C@@H]3O[C@H]1C[C@H](N)[C@H](O)[C@H](C)O1
6.01

====

Measured IC50, listed per entry.
molecular target: Tubulin (Sus scrofa, UniProt P02554+P02550); test: Inhibition of porcine brain tubulin polymerization measured every 60 secs for 60 mins by DAPI staining-based fluorescence assay
All answers are understood in µM, so give the number only.

molecule: COc1ccc2[nH]cc(/C=C(\C)C(=O)c3cc(OC)c(OC)c(OC)c3)c2c1
unitName: µM
observedMeasurement: 5.06
//
molecule: COc1ccc2c(/C=C(\C)C(=O)c3cc(OC)c(OC)c(OC)c3)c[nH]c2c1
unitName: µM
observedMeasurement: 2.68
//
molecule: COc1ccc2c(/C=C/C(=O)c3cc(OC)c(OC)c(OC)c3)cn(C)c2c1
unitName: µM
observedMeasurement: 3.48
//
molecule: COc1ccc2c(/C=C(\C)C(=O)c3cc(OC)c(OC)c(OC)c3)cn(CO)c2c1
unitName: µM
observedMeasurement: 3.59

# ---- query compound ----
Give recorded IC50 with Tubulin (Sus scrofa, UniProt P02554+P02550) for the following compound: COc1ccc2c(/C=C/C(=O)c3ccc(OC)c4c3OC(C)(C)C=C4)c[nH]c2c1
4.39

====

experiment: Metabolic stability in Sprague-Dawley rat liver microsomes assessed as compound remaining at 90 mins in presence of NADPH regenerating system by HPLC method; type: ADME; details: read-out: Stability
Below, each entry is listed alongside its reported remaining at 1.5 h.
Just the number please, in %, no unit attached.

molecule: COc1ccc2c(/C=C(\C)C(=O)c3cc(OC)c(OC)c(OC)c3)c[nH]c2c1
remaining at 1.5 h / %: 73.7

# input molecule: COc1ccc(/C=C\c2cc(OC)c(OC)c(OC)c2)cc1O ; wanted: its remaining at 1.5 h
23.1
